tested on: Proteus vulgaris; assay: MIC against Gram-negative bacteria: Proteus vulgaris; format: cell-based; conditions: P. vulgaris; 10 h cultivation at 37° C.; 5×10^5 CFU/mL
Measured attribute: MIC (μg/mL) P. vulgaris (µg/mL)
Respond numerically; units are µg/mL and should not be typed.

Here are 2 substances together with their reported answers.
1) PRT154 (DVDECSLAEKTCVRKNENCYNTPGSYVCVCPDGFEETEDACV; listed as Homo sapiens) ... 12.5
2) PRT812 (YGKHCRKKCNCANRGRCHRLYGACLCDPGLYGRFCH; listed as Homo sapiens) ... 50

Could you share which MIC (μg/mL) P. vulgaris value was measured for PRT755 (AVDYCASENHGCEHECVNADGSYLCQCHEGFALNPDKKTCT; listed as Homo sapiens) ? 12.5

State the recorded MIC (μg/mL) P. vulgaris for this entry: PRT881 (AEGPCGERPCENGGICFLLDGHPTCDCSTTGYGGKLCS; listed as Homo sapiens) 25

What does the record list as MIC (μg/mL) P. vulgaris for PRT830 (CALGNGGCQHHCVQLTITRHRCQCRPGFQLQEDGRHC; listed as Homo sapiens) ? 12.5

State the recorded MIC (μg/mL) P. vulgaris for this entry: PRT850 (CQCHGHVDPVKTPKICKPESGECINCLHNTTGFWCENCLEGYVHDLEGNCIK; listed as Homo sapiens) 25

====

Each entry below carries its reported MIC (μg/mL) S. marcescens.
tested on: Serratia marcescens; experiment: MIC against Gram-negative bacteria: Serratia marcescens; format: cell-based; conditions: S. marcescens; 10 h cultivation at 37° C.; 5×10^5 CFU/mL
// units = µg/mL; emit number, no label

Solved cases (3 shown):
1) PRT252 (TAACTNTSCSGHGECVETINNYTCKCDPGFSGLKCE; listed as Homo sapiens) ... 25
2) PRT757 (RINYCALNKPGCEHECVNMEESYYCRCHRGYTLDPNGKTCS; listed as Homo sapiens) ... 50
3) PRT178 (SGVTCADGPCFNGGLCVGGADPDSAYICHCPPGFQGSNCE; listed as Homo sapiens) ... 25

Give the measured MIC (μg/mL) S. marcescens of PRT162 (LIDFCALSPCAHGTCRSVGTSYKCLCDPGYHGLYCE; listed as Homo sapiens) . 25

====

A collection of substances and their measured MIC against P. aeruginosa
test system: Pseudomonas aeruginosa; experiment: MIC against Gram-negative bacteria: Pseudomonas aeruginosa; type: cell-based; details: Pseudomonas aeruginosa; 5×10^5 CFU/mL; 10 h cultivation at 37° C.
Express your answer in µg/mL, writing the number without its unit.

1) PRT1345 (NINECSSSPCLNKGICVDGVAGYRCTCVKGFVGLHCE; listed as Homo sapiens) ... 50
2) PRT1456 (DYDECERKEDDCVPGTSCRNTLGSFTCSCEGGAPDFPVEYSE; listed as Homo sapiens) ... 12.5
3) PRT1443 (NHMPCPENLNGYCIHGKCEFIYSTQKASCRCESGYTGQHCE; listed as Homo sapiens) ... 25

Please find the next substance below.
# lookup: MIC against P. aeruginosa of PRT1463 (CDCDTAGSLPGTVCNAKTGQCICKPNVEGRQCNKCLEGNFYLRQNNSFLCLP; listed as Homo sapiens) 12.5

====

Known MIC M. catarrhalis of a selection of substances
system: Moraxella catarrhalis; assay: MIC against Gram-negative bacteria: Moraxella catarrhalis; assay type: cell-based; details: 10 h cultivation at 37° C., 5×10^5 CFU/mL, two-fold serial dilution
Numbers only; they are read as µg/mL.

1. PRT1077 (RSHACENDQYGKPGGCSDICLLANSHKARTCRCRSGFSLGSDGKSCK; listed as Homo sapiens) ... 25

Next substance, MIC M. catarrhalis to be filled in.
Provide value of MIC M. catarrhalis for this record tested with Moraxella catarrhalis: PRT1110 (RREQCRPLPCVHGGSCVDLWTHFRCDCARPHRGPTCA; listed as Homo sapiens) 12.5

====

system: E. coli DH5α; assay: Antibacterial activity: MIC and growth curve against E. coli DH5α in 96-well plate; type: cell-based; settings: minimal inhibitory concentration against E. coli DH5α; 96-well plate, 5×10^5 CFU/mL, 37° C., judged after 8 h
Measured attribute: MIC (µg/mL)
Answer with a number only, understood to be in µg/mL.

// worked examples, MIC included
1. PRT973 (DLPDCSPSSCFNGGTCVDGVNSFSCLCRPGYTGAHCQ; listed as Homo sapiens) ... 12.5
2. PRT129 (CSTYGHLCRNGGRCREKRRGVTCDCAFSAYDGPFC; listed as Homo sapiens) ... 50
3. PRT1378 (AIQTCPGDCRGRGECHDGSCVCKDGYAGEDCG; listed as Homo sapiens) ... 50
4. PRT108 (VKDHCSKHSPCQKGGTCVNMPSGPHCLCPQHLTGNHCQ; listed as Homo sapiens) ... 50

Reported MIC, substance PRT60 (EVDECSRPNRGGCEQRCLNTLGSYKCSCDPGYELAPDKRRCE; listed as Homo sapiens) : ____ 12.5

If you can, please state the reported MIC value of PRT1003 (STDYCVSAPCFNGGTCVNRPGTFSCLCAMGFQGPRCE; listed as Homo sapiens) . 50

Report MIC for PRT691 (DINECDEAEAASPLCVNARCLNTDGSFRCICRPGFAPTHQPHHCA; listed as Homo sapiens) please. 25

// query MIC value for entry PRT835 (DVDECASSRGGCEHHCTNLAGSFQCSCEAGYRLHEDRRGCS; listed as Homo sapiens) 25

Can you look up the measured MIC of PRT427 (DVNECETGVHRCGEGQVCHNLPGSYRCDCKAGFQRDAFGRGCI; listed as Homo sapiens) for me? 25

Sample PRT172 (CADGPCFNGGRCSDSPDGGYSCRCPVGYSGFNC; listed as Homo sapiens) — what was its MIC? 12.5

Entry PRT719 (CNNPCEQFNGGCSHICAPGPNGAECQCPHEGNWYLANNRKHCI; listed as Homo sapiens) : reported MIC = ? 50

So what's the measured MIC for this one? PRT1154 (DGTACGYNTCRNGGECTVNGTTFSCRCLPDWAGNTCN; listed as Homo sapiens) 50

So what does the record say about MIC for PRT978 (DVDECASQPCQHGGSCIDLVARYLCSCPPGTLGVLCE; listed as Homo sapiens) ? 12.5

Item PRT1159 (TTDDQENECQHEAVCKDEINRPRCSCSLSYIGRLCV; listed as Homo sapiens) has what recorded MIC? 12.5

Give its MIC value. Item: PRT478 (ATQYCSRAQCHGHGRCVRRNPSASTFLHLSTNSFRLVPGHAPGEPQLRPVGELSWADIDH; listed as Homo sapiens) 50

What MIC value was documented for this substance, PRT804 (HGAHCELRCPCQNGGTCHHITGECACPPGWTGAVCA; listed as Homo sapiens) ? 12.5

Would you mind telling me what MIC value was observed for PRT201 (NMSSCPLDSKGKVCSGHGVCSNEATCICDFTWAGTDCS; listed as Homo sapiens) ? 50

Requested read-out: MIC. Entry: PRT481 (EITACSSSPCFHDGTCVLDKAGSYKCACLAGYTGQRCE; listed as Homo sapiens) 25

Look at this substance and give its reported MIC. PRT907 (PSVSCEVAAQRQGVDVARLCQHGGLCVDAGNTHHCRCQAGYTGSYCE; listed as Homo sapiens) 25

Look at this substance and give its reported MIC. PRT630 (CQCSGNVDPNAVGNCDPLSGHCLRCLHNTTGDHCEHCQEGFYGSALAPRPADKCMP; listed as Homo sapiens) 50

Entry PRT942 (LVNLCSRSPCKNKGTCVQKKAESQCLCPSGWAGAYCD; listed as Homo sapiens) has what MIC? 25

Consider the substance shown here: PRT135 (PGHCSSYGSICHNGGKCVEKHNGYLCDCTNSPYEGPFCK; listed as Homo sapiens) What is its recorded MIC? 25

Need MIC, item PRT680 (DVNECAEGSPCSPGWCENLPGSFRCTCAQGYAPAPDGRSCL; listed as Homo sapiens) 12.5

Would you kindly share the measured MIC for PRT1198 (EHDECGSGQHNCDENAICTNTVQGHSCTCKPGYVGNGTICR; listed as Homo sapiens) ? 25

Give its MIC value. Item: PRT1301 (DNDDCVAHKCRHGAQCVDTINGYTCTCPQGFSGPFCE; listed as Homo sapiens) 12.5

Find the recorded MIC belonging to PRT1258 (GRTCIETCAVNNGGCDRTCKDTATGVRCSCPVGFTLQPD; listed as Homo sapiens) and report it. 12.5

Tell me the measured MIC of PRT756 (KIDYCASSNHGCQHECVNTDDSYSCHCLKGFTLNPDKKTCR; listed as Homo sapiens) , please. 12.5

MIC for PRT1339 (EINNCLLPSAGGCHDNASCLYVGPGQNECECKKGFRGNGIDCE; listed as Homo sapiens) ? 25

Consider the substance shown here: PRT1122 (DVDECLSDPCLHGGTCSDTVAGYICRCPETWGGRDCS; listed as Homo sapiens) What is its recorded MIC? 50

Query (substance): PRT1297 (NACLSSPCKNNGTCTQDPVELYRCACPYSYKGKDCT; listed as Homo sapiens) ; field requested: MIC 12.5

Quick one: MIC of PRT1055 (GADPCLYQNGGCEHICKKRLGTAWCSCREGFMKASDGKTCL; listed as Homo sapiens) ? 12.5
